# credit: patent US20250066347A1

Assay: In vivo PK test, drug concentration in plasma after oral or intravenous administration
Details: CRljOri:CD1(ICR), mouse, plasma, po, 25 mg/kg, oral 25 mg/kg, 4 hr, read-out: Drug concentration in plasma, Average
Reported Endpoint: concentration at 4 h (ng/mL)
Respond with the bare value in ng/mL.

(Q) May I ask what concentration at 4 h has been recorded for CC(C)(C)c1ccc(-c2cc(/C=C3\SC(=O)NC3=O)ccn2)cc1 [Compound 11] ?
(A) 3540

====

Test: In vivo PK test, drug concentration in plasma after oral or intravenous administration
Details: CRljOri:CD1(ICR), mouse, plasma, iv, 5 mg/kg, intravenous 5 mg/kg, 8 hr, read-out: Drug concentration in plasma, Average
Reported Endpoint: concentration at 8 h (ng/mL)
Your answer should be a plain number; it is taken to be in ng/mL.

(Q) Reported concentration at 8 h for CC(C)(C)c1ccc(-c2cc(/C=C3\SC(=O)NC3=O)ccn2)cc1 : what is it?
(A) 575

====

Assay: In vivo brain tissue distribution test after oral administration
Conditions: Hsd:ICR(CD-1R); Brain (25 mg/kg, PO), mouse; read-out: MRTinf, Mean
Reported Endpoint: MRT inf (h)
I only need the number, in h, no unit after it.

(Q) So what's the measured MRT inf for this one? CC(C)(C)c1ccc(-c2cc(/C=C3\SC(=O)NC3=O)ccn2)cc1
(A) 6
